The measured values listed here are drawn from ChEMBL document CHEMBL4265909.

- Target: CDK2/Cyclin A2 (Homo sapiens)
- Assay Procedure: Inhibition of full-length human CDK2/N-terminal GST-tagged Cyclin A2 (1 to 432 residues) expressed in Baculovirus expression system using FAM-P8/P18 as substrate measured after 40 mins
Provide the recorded IC50 for the entries that follow.
# do not omit the unit; it follows the number

State the recorded IC50 for this entry: CSc1ncc2c(n1)CCc1cnc(Nc3ccc(C(N)=O)cc3)nc1-2 0.11 µM

May I ask what IC50 has been recorded for CSc1ncc2c(n1)CCc1cnc(Nc3ccccc3)nc1-2 ? 0.41 µM

Would you mind telling me what IC50 value was observed for CSc1ncc2c(n1)CCc1cnc(Nc3ccc(C(=O)N4CCN(C)CC4)cc3)nc1-2 ? 0.18 µM

What does the data say about its IC50? Entry: CSc1ncc2c(n1)CCc1cnc(Nc3ccc(N)cc3)nc1-2 0.16 µM

// IC50 lookup, key: CSc1ncc2c(n1)CCc1cnc(Nc3ccc(C(=O)N(C)C)cc3)nc1-2 0.53 µM

Fill blank: measured IC50 of the compound CSc1ncc2c(n1)CCc1cnc(Nc3ccc(C(=O)O)cc3)nc1-2 is ____. 0.98 µM

Look at this compound and give its reported IC50. Clc1ccc(Nc2ncc3c(n2)-c2cnc(Nc4ccccc4)nc2CC3)cc1 2.03 µM

Consider the compound Nc1ncc2c(n1)-c1cnc(Nc3ccc(Cl)cc3)nc1CC2 and give its measured IC50. 1.85 µM

# input compound: CSc1ncc2c(n1)CCc1cnc(Nc3ccc(C(=O)N4CCN(C(=O)OC(C)(C)C)CC4)cc3)nc1-2 ; wanted: its IC50 3.7 µM

Dear colleague, I am looking for the recorded IC50 of the following compound: CSc1ncc2c(n1)CCc1cnc(Nc3ccc(C(=O)N4CCNCC4)cc3)nc1-2 0.16 µM

====

Reported Property: IC50 (nM)
Form entry: value (nM) — number only.

What measured IC50 is associated with CSc1ncc2c(n1)CCc1cnc(Nc3ccc(C(=O)N(C)CCN(C)C)cc3)nc1-2 on Cyclin-dependent kinase 5 (Homo sapiens, UniProt Q00535)? 680

====

Reported Property: IC50 (µM)
API: value field is a number in µM; no unit string.

Request: IC50, test system Cyclin-dependent kinase 7 (Homo sapiens, UniProt P50613), entry CSc1ncc2c(n1)CCc1cnc(Nc3ccc(C(=O)N(C)CCN(C)C)cc3)nc1-2 3.6

====

- Target: CDK2/Cyclin A2 (Homo sapiens, UniProt P24941)
- Assay Procedure: Inhibition of full-length human CDK2/N-terminal GST-tagged Cyclin A2 (1 to 432 residues) expressed in Baculovirus expression system using FAM-P8/P18 as substrate measured after 40 mins
Reported Property: IC50
Entry format: amount then unit.

Data request, read-out IC50, for CN(C)CCN(C)C(=O)c1ccc(Nc2ncc3c(n2)CCc2cnc(N)nc2-3)cc1 3200 nM

Please give the measured IC50 for this compound: CSc1ncc2c(n1)CCc1cnc(Nc3ccc(F)cc3)nc1-2 350 nM

IC50 lookup needed for c1ccc(Nc2ncc3c(n2)CCc2cnc(Nc4ccccc4)nc2-3)cc1 , thanks. 1540 nM

Param item = CCOC(=O)c1ccc(Nc2ncc3c(n2)-c2cnc(SC)nc2CC3)cc1 ; retrieve measured IC50. 1250 nM

Give the measured IC50 of CSc1ncc2c(n1)CCc1cnc(Nc3ccc(C(=O)N(C)CCN(C)C)cc3)nc1-2 . 90 nM

Please give the measured IC50 for this compound: CSc1ncc2c(n1)CCc1cnc(Nc3ccc(C(=O)NC4CCCC4)cc3)nc1-2 1260 nM

Can you share its IC50? I mean this compound: CSc1ncc2c(n1)CCc1cnc(Nc3ccc(C(=O)N4CCOCC4)cc3)nc1-2 190 nM

// returns reported IC50 for input Nc1ncc2c(n1)-c1cnc(Nc3ccccc3)nc1CC2 1700 nM

Report IC50 for CSc1ncc2c(n1)CCc1cnc(Nc3ccc(Cl)cc3)nc1-2 please. 380 nM

Fill in: IC50 of CN1CCN(C(=O)c2ccc(Nc3ncc4c(n3)CCc3cnc(N)nc3-4)cc2)CC1 is ___ 5900 nM
